Data provenance: ChEMBL document CHEMBL5550122

# System: MCF7
# assayProtocol: Cytotoxicity against human MCF7 cells assessed as reduction in cell viability at 100 to 400 uM incubated for 4 hrs under dark condition by MTT assay
# Type: functional, cell-based
# particulars: dose 100-400 µM
The source made the active and inactive calls. The calls are words filed in the database; no cut-off is given here.

{"chemSmiles": "COC(=O)CCC(=O)CNC(=O)CCCCn1cc(O)c(=O)cc1CO", "Activity": "inactive"}
{"chemSmiles": "COC(=O)CCC(=O)CNC(=O)[C@H](Cc1ccccc1)NC(=O)Cn1cc(O)c(=O)cc1C", "Activity": "inactive"}
{"chemSmiles": "COC(=O)CCC(=O)CNC(=O)[C@H](CC(C)C)NC(=O)Cn1ccc(=O)c(O)c1C", "Activity": "inactive"}
{"chemSmiles": "COC(=O)CCC(=O)CNC(=O)Cn1cc(O)c(=O)cc1C", "Activity": "inactive"}
{"chemSmiles": "COC(=O)CCC(=O)CNC(=O)[C@H](Cc1ccccc1)NC(=O)Cn1ccc(=O)c(O)c1C", "Activity": "inactive"}
{"chemSmiles": "COC(=O)CCC(=O)CNC(=O)CCCn1cc(O)c(=O)cc1CO", "Activity": "inactive"}
{"chemSmiles": "COC(=O)CCC(=O)CNC(=O)CCCCCn1cc(O)c(=O)cc1C", "Activity": "inactive"}
{"chemSmiles": "COC(=O)CCC(=O)CNC(=O)CCn1cc(O)c(=O)cc1CO", "Activity": "inactive"}
{"chemSmiles": "COC(=O)CCC(=O)CNC(=O)CCCCCn1cc(O)c(=O)cc1CO", "Activity": "inactive"}
{"chemSmiles": "COC(=O)CCC(=O)CNC(=O)CCn1cc(O)c(=O)cc1C", "Activity": "inactive"}
{"chemSmiles": "COC(=O)CCC(=O)CNC(=O)[C@H](CC(C)C)NC(=O)Cn1cc(O)c(=O)cc1C", "Activity": "inactive"}
{"chemSmiles": "COC(=O)CCC(=O)CNC(=O)Cn1cc(O)c(=O)cc1CO", "Activity": "inactive"}
{"chemSmiles": "COC(=O)CCC(=O)CNC(=O)CCCCn1cc(O)c(=O)cc1C", "Activity": "inactive"}
{"chemSmiles": "COC(=O)CCC(=O)CNC(=O)[C@H](Cc1ccccc1)NC(=O)CCCCCn1cc(O)c(=O)cc1C", "Activity": "inactive"}
{"chemSmiles": "COC(=O)CCC(=O)CNC(=O)CCCn1cc(O)c(=O)cc1C", "Activity": "inactive"}

###

# System: HeLa
# assayProtocol: Cytotoxicity against human HeLa cells assessed as reduction in cell viability at 100 uM incubated for 4 hrs under dark condition by MTT assay
# Type: functional, cell-based
Calls of active or inactive are those of the source. The calls are words filed in the database; no cut-off is given here.
Possible outcomes: active, inactive

{"chemSmiles": "CCCCCCn1c(C)cc(=O)c(O)c1COC(=O)CCC(=O)CN.Cl", "qualitativeLabel": "inactive"}
{"chemSmiles": "Cc1cc(=O)c(O)c(COC(=O)CCC(=O)CN)n1CCc1ccccc1.Cl", "qualitativeLabel": "inactive"}
{"chemSmiles": "CCCCCCCCn1c(C)cc(=O)c(O)c1COC(=O)CCC(=O)CN.Cl", "qualitativeLabel": "active"}
{"chemSmiles": "CCCCn1c(C)cc(=O)c(O)c1COC(=O)CCC(=O)CN.Cl", "qualitativeLabel": "inactive"}
{"chemSmiles": "COCCCn1c(C)cc(=O)c(O)c1COC(=O)CCC(=O)CN.Cl", "qualitativeLabel": "inactive"}
{"chemSmiles": "CCCCCn1c(C)cc(=O)c(O)c1COC(=O)CCC(=O)CN.Cl", "qualitativeLabel": "inactive"}
{"chemSmiles": "CCOCCCn1c(C)cc(=O)c(O)c1COC(=O)CCC(=O)CN.Cl", "qualitativeLabel": "inactive"}
